- Tested on: KM12
- assay.explanation: NCI tumour cell line growth inhibition, 48 h
Calls of active or inactive are those of the source. Cut-off read from the data, not from the text of the source: active = GI50 up to about 1.1 µM and inactive = higher.
test.readout: GI50

compound="Clc1ccc(C2ON=C(c3ccccc3)N2C23CC4CC(CC(C4)C2)C3)cc1 (stereo unspecified)" study_target=KM12 val="> 10 µM (inactive)"
compound=COc1ccc(/C=N/C23CC4CC(CC(C4)C2)C3)cc1 study_target=KM12 val="> 100 µM (inactive)"

Reported GI50 for CCSc1c2cc(OC)ccc2nc2ccc(OC)cc12 : what is it?
11.2 µM (inactive)

Requested field: GI50. Item: COc1ccc2c(C3(O)CCNCC3)c[nH]c2c1
> 100 µM (inactive)

Which GI50 is reported for this compound? CCCCCCCCSC1=C(Cl)C(=O)C(OC)=C(OC)C1=O
7.53 µM (inactive)

So what's the measured GI50 for this one? O=C(CCN1CCOCC1)c1ccc(Oc2ccc(F)cc2)cc1
17.4 µM (inactive)

* * *

Item-by-item account of GI50
- Test system: A549
- assay.explanation: NCI tumour cell line growth inhibition, 48 h
Calls of active or inactive are those of the source. Cut-off read from the data, not from the text of the source: active = GI50 up to about 1.1 µM and inactive = higher.

Solved cases below.
compound=O=c1[nH]nc(-c2ccccc2)n1/N=C/c1ccco1 study_target=A549 test_readout=GI50 val="> 100 µM (inactive)"
compound="COC(=O)C1=C(c2ccc(OC)c(OC)c2)OC(c2cc(OC)c(OC)c(OC)c2)C1 (stereo not given)" study_target=A549 test_readout=GI50 val="> 100 µM (inactive)"
compound="O=C(/C=C/c1ccc(O)cc1)OC[C@@H](O)COC1OC(CO)C(O)C(O)C1O (stereo not given in full)" study_target=A549 test_readout=GI50 val="> 100 µM (inactive)"
compound="CN(C)C(=O)OC1=CC2CCC(C1)N2C (stereo not given)" study_target=A549 test_readout=GI50 val="70.8 µM (inactive)"

From here, focus on the item given below.
For the compound shown here, NC(=O)N/N=C(\C(=O)C(=O)Nc1ccc(Cl)c(C(F)(F)F)c1)c1nc2ccc(C(=O)c3ccccc3)cc2nc1O , give the reported GI50.
> 100 µM (inactive)

* * *

- Tested on: Malme-3M
- assay.explanation: NCI tumour cell line growth inhibition, 48 h
The source made the active and inactive calls. Rule as the data show it: active = GI50 up to about 1.1 µM and inactive = higher.
Pick one: true (1) (active), false (0) (inactive)

Sample answers from the record:
compound=COc1ccccc1C(=O)Nc1ccc(Cl)c(C(=O)OC(C)C)c1 classification="false (0)"
compound=N=c1oc2cc(O)c(O)cc2cc1C(N)=O classification="false (0)"
compound="CC1(C(=O)O)CCC2(C)CCC3(C)C(=CC(=O)C4C5(C)CCC(O)C(C)(C)C5CCC43C)C2C1 (stereo not given)" classification="false (0)"

Could you now look at the following compound, please?
// outcome(item) with item = O=C(O)c1cc2cc(OCc3ccccc3)ccc2[nH]1
true (1)

* * *

- System: UO-31
- assay.explanation: NCI tumour cell line growth inhibition, 48 h
Calls of active or inactive are those of the source. Cut-off read from the data, not from the text of the source: active = GI50 up to about 1.1 µM and inactive = higher.
Parameter: GI50. Scope: all listed entries.

compound="CC(C)C1OCC(CO)CO1 (stereo not given)" study_target=UO-31 val="> 100 µM (inactive)"
compound="COC(=O)C1=C(c2ccc(OC)c(OC)c2)OC(c2cc(OC)c(OC)c(OC)c2)C1 (stereo not given)" study_target=UO-31 val="> 100 µM (inactive)"

Which GI50 is listed for CCOC(=O)CCC(C(=O)OCC)n1nnc2ccc(Nc3c(C)[n+]([O-])c4ccc(Cl)cc4[n+]3[O-])cc21 (stereo not given) ?
42.2 µM (inactive)

I'd like to know its GI50. The compound in question is O=C1C2Cc3ccccc3CN2C(=O)N1CN1CCN(CN2C(=O)C3Cc4ccccc4CN3C2=O)CC1 (stereo not given)
> 100 µM (inactive)

Request the reported GI50 associated with O=C(/C=C/c1ccc(O)cc1)OC[C@@H](O)COC1OC(CO)C(O)C(O)C1O (stereo not given in full)
> 100 µM (inactive)

* * *

- Tested on: 786-0
- assay.explanation: NCI tumour cell line growth inhibition, 48 h
Active and inactive are the calls of the source. Rule as the data show it: active = GI50 up to about 1.1 µM and inactive = higher.
GI50 listing for selected compounds.

compound=CC1(C)[C@@H]2CC[C@]1(C)[C@H](OC(=O)CSC#N)C2 val="18.3 µM (inactive)"
compound="COc1cc2c(cc1OC)CC1c3cc(OC)c(OC)cc3CCN1CC2 (stereo not given)" val="> 100 µM (inactive)"

Data request, read-out GI50, for O=c1c2cc(Br)ccc2nc(CNc2ccccc2)n1-c1ccccc1
14.6 µM (inactive)

Requested field: GI50. Item: Cn1nc(-c2ccc(S(=O)(=O)N/C(=N/c3ccc(Cl)cc3)NN)s2)cc1C(F)(F)F
14.9 µM (inactive)

* * *

- Test system: K562
- assay.explanation: NCI tumour cell line growth inhibition, 48 h
Active and inactive are the calls of the source. Cut-off read from the data, not from the text of the source: active = GI50 up to about 1.1 µM and inactive = higher.
Choose the fitting class; nothing outside TRUE (active), FALSE (inactive) is accepted.

compound=Cc1ccc(S(=O)(=O)NCCSCCSCCNS(=O)(=O)c2ccc(C)cc2)cc1 classification=FALSE

Each compound tested received a call. Report the one for O=c1c2cc(Br)ccc2nc(CNc2ccccc2)n1-c1ccccc1 .
FALSE

Dear colleague, could you share the recorded outcome for O=C(OCCN=c1c2ccccc2ccc2ccccc12)c1cc([N+](=O)[O-])cc([N+](=O)[O-])c1 when you have a moment?
FALSE

Query: recorded result category for Cc1ccc(S(=O)(=O)N2CCN(S(=O)(=O)c3ccc(C)cc3)CCN(S(=O)(=O)c3ccc(C)cc3)Cc3cc(C#N)c(C#N)cc3CN(S(=O)(=O)c3ccc(C)cc3)CC2)cc1 in this test
FALSE

Assay result, entry Oc1cc(-c2c[nH]c3ccccc23)nc2cc3c(cc12)OCO3 — outcome?
FALSE

* * *

- Tested on: NCI-H226
- assay.explanation: NCI tumour cell line growth inhibition, 48 h
Calls of active or inactive are those of the source. Rule as the data show it: active = GI50 up to about 1.1 µM and inactive = higher.
# output must be one of active, inactive

molecule="O=C(N/C(=C\\c1ccccc1)C1Nc2ccccc2C(=O)O1)c1ccccc1 (centres undefined)" classification=inactive
molecule="COC1=CC(=O)C(C2(OC(C)C)OC(=O)C(Cl)=C2Cl)=CC1=O (centres undefined)" classification=inactive
molecule=O=[N+]([O-])c1ccc(/C(=C\c2ccccc2)Cn2ccnc2)cc1 classification=inactive
molecule="COCOc1c(C(O[Si](C)(C)C(C)(C)C)c2cnc(Sc3ccccc3)n2C)ccc(OC)c1OC (centres undefined)" classification=inactive

What outcome does the record of this test show for C=C1C(=O)O[C@H]2C(=O)[C@H](C)CCC[C@@](C)(O)/C=C\C[C@@]3(C)O[C@@H]3C[C@@H]12 ?
inactive

// outcome(item) with item = NC(CCc1ncc(C(=O)O)s1)C(=O)O (centres undefined)
inactive

Which outcome was entered for the molecule C=C(C)C(=O)OC1C(C(C)CCCO)=C(CO)CC2OC(=O)C(=C)C21 (centres undefined) in this test?
inactive

Tell me the assay call for CN(C)C(=O)OC1=CC2CCC(C1)N2C (centres undefined) please.
active

What outcome does the record of this test show for CC(C)=CCC[C@@H](C)C1=C(N)C(=O)C(C)=C(O)C1=O ?
inactive

* * *

Listed here are compounds together with their documented GI50.
- System: SNB-19
- assay.explanation: NCI tumour cell line growth inhibition, 48 h
Active and inactive are the calls of the source. Rule as the data show it: active = GI50 up to about 1.1 µM and inactive = higher.

compound="OC1(c2ccc(Cl)cc2)c2c(ccc3c2OCO3)C2=NCCN21 (stereo not drawn)" study_target=SNB-19 val="73.6 µM (inactive)"
compound="NC1CNC(=O)c2c(Cl)sc(Cl)c21 (stereo not drawn)" study_target=SNB-19 val="> 100 µM (inactive)"
compound=C/C(CC(=O)Nc1ccc(C)c(C)c1)=N\N(c1ccccc1)c1ccccc1 study_target=SNB-19 val="> 100 µM (inactive)"

Please report the recorded GI50 for CCOC(=O)C1=C(C)N(NC(=O)c2ccccc2)C2(O)CCCC12C(=O)OCC (stereo not drawn) .
> 100 µM (inactive)

* * *

- Tested on: SR
- assay.explanation: NCI tumour cell line growth inhibition, 48 h
Active and inactive are the calls of the source. Cut-off read from the data, not from the text of the source: active = GI50 up to about 1.1 µM and inactive = higher.
Would you mind answering with one of these outcomes? label 1 = active, label 0 = inactive

compound="c1ccc(C2C3=C(c4ccccc4CC3)N3c4cc5c(cc4=NC34CCCCC24)Nc2ccccc2N=5)cc1 (configuration not stated)" classification="label 1"
compound="CCOC(=O)CCC(C(=O)OCC)n1nnc2ccc(Nc3c(C)[n+]([O-])c4ccc(Cl)cc4[n+]3[O-])cc21 (configuration not stated)" classification="label 0"
compound=O=[N+]([O-])c1ccc(/C(=C\c2ccccc2)Cn2ccnc2)cc1 classification="label 0"
compound=CSC(=S)N/N=C(\C)c1ccc(S(=O)(=O)N(C)c2ccccc2)cc1 classification="label 0"

Called result for COC(OC)c1cccc2c1C(=O)CCC1(O)c3ccccc3C1C2 (configuration not stated)
label 0

Outcome? CC1CN(C(=O)CN2CCC(CCCCN(C)C)CC2)c2ccccc2NC1=O (configuration not stated)
label 0

Field: outcome | Entry: COC1=CC23C=CC1[C@@H](c1ccccc1)C2=C(C)C(=O)N3C(=O)NC1CCCCC1 (some centres not stated)
label 0

Record request — test call for O=c1oc2c/c(=C\c3ccc([N+](=O)[O-])cc3)c(=O)c3cccc1c3-2
label 0

Outcome? NC(=O)N/N=C(\C(=O)C(=O)Nc1ccc(Cl)c(C(F)(F)F)c1)c1nc2ccc(C(=O)c3ccccc3)cc2nc1O
label 0
